Molecular target: UniProtKB P11473
Sequence (whole entry): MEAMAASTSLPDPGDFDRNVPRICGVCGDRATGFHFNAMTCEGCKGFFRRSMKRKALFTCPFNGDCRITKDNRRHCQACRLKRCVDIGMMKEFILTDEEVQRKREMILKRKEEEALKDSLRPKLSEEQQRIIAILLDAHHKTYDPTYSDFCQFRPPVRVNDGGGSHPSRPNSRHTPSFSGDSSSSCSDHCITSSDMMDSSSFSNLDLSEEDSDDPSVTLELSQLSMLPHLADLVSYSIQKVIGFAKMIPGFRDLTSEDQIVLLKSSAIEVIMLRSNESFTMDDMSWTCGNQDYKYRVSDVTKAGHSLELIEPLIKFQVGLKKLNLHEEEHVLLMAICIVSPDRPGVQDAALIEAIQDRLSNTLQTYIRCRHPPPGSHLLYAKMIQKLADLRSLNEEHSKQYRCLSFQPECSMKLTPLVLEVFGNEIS
Test: Binding affinity to full-length VDR (unknown origin) at 1 uM by fluorescence polarization assay relative to control
Settings: filed as agonist
measured_property: Activity
Reply with a number, then the unit it belongs to.

Completed entries (count: 2):
CC(C)(C)c1ccc(C(=O)COc2ccc(/C=C/C3=C[C@@H](O)[C@@H](O)[C@H](O)C3)c3c2CCCC3)cc1	88%
CC(OC(=O)C1=C[C@@H](O)[C@@H](O)[C@H](O)C1)c1cccc(OCCCC(C)(C)O)c1 (stereo partly drawn)	85%

Take each entry in turn and give its Activity.
1. CC(C)(O)CCOc1ccc(C#CC2=C[C@@H](O)[C@@H](O)[C@H](O)C2)c2c1CCCC2
2. O=C(COc1ccc(/C=C/C2=C[C@@H](O)[C@@H](O)[C@H](O)C2)c2c1CCCC2)N1CCOCC1

Result string:
1: 56%; 2: 45%

###

Biological target: Vitamin D3 receptor (Homo sapiens)
Sequence (whole entry): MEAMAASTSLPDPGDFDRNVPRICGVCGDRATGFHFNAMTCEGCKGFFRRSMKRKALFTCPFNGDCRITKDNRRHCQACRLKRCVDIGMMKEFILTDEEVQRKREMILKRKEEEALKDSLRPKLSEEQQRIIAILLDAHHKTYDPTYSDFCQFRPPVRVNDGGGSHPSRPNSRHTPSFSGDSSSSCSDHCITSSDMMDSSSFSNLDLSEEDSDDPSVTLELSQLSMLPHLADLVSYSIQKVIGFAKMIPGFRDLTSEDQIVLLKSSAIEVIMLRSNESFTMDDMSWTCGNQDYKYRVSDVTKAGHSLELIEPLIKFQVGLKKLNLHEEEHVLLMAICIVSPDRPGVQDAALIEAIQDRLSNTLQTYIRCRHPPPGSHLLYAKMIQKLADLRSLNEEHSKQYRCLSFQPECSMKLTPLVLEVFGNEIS
Experiment: Binding affinity to full-length VDR (unknown origin) at 1 uM by fluorescence polarization assay relative to control
Details: filed as agonist
measured_property: Activity
Reply with a number, then the unit it belongs to.

Completed entries (count: 3):
CCCC(O)(CCC)CCCOc1cccc2c1CCCC2OC(=O)C1=C[C@@H](O)[C@@H](O)[C@H](O)C1 (some centres undefined)	77%
CC(C)(O)CCCOc1cccc(COC(=O)C2=C[C@@H](O)[C@@H](O)[C@H](O)C2)c1	49%
CC(C)(O)CCOc1ccc(/C=C/C2=C[C@@H](O)[C@@H](O)[C@H](O)C2)c2c1CCCC2	55%

Query string: What Activity appears in the records for this compound with Vitamin D3 receptor (Homo sapiens)? CC(C)(O)CCCn1ccc2c(/C=C/C3=C[C@@H](O)[C@@H](O)[C@H](O)C3)cccc21
Result string: 71%

###

Target: Vitamin D3 receptor (Homo sapiens)
Assay: Binding affinity to full-length VDR (unknown origin) at 1 uM by fluorescence polarization assay relative to control
Details: filed as agonist
For each record, write down the corresponding Activity.
One number for each entry, in %.

Completed entries (count: 2):
Cc1cc(C(C)(C)O)ccc1-c1ccc(COC(=O)C2=C[C@@H](O)[C@@H](O)[C@H](O)C2)s1	71
CC(C)(O)CCCOc1ccc(/C=C/C2=C[C@@H](O)[C@@H](O)[C@H](O)C2)c2c1CCCC2	43

Take each entry in turn and give its Activity.
1. CCN(CC)C(=O)COc1ccc(/C=C/C2=C[C@@H](O)[C@@H](O)[C@H](O)C2)c2c1CCCC2
2. CC(C)(O)CCCCOc1ccc(C#CC2=C[C@@H](O)[C@@H](O)[C@H](O)C2)c2c1CCCC2

Result string:
1. 56
2. 50

###

Molecular target: Vitamin D3 receptor (Homo sapiens)
Assay: Agonist activity at VDR in human LX2 cells assessed as increase in CYP24A1 level at 0.5 uM by qRT-PCR analysis
Format: cell-based
Settings: filed as agonist
Calls of active or inactive are those of the source. No cut-off for these calls is given here.
measured_property: Activity

Completed entries (count: 4):
O=C(COc1ccc(/C=C/C2=C[C@@H](O)[C@@H](O)[C@H](O)C2)c2c1CCCC2)c1ccccc1	Active
CCC(O)(CC)CCCn1ccc2c(/C=C/C3=C[C@@H](O)[C@@H](O)[C@H](O)C3)cccc21	Active
CCC(O)(CC)c1ccc(-c2ccc(COC(=O)C3=C[C@@H](O)[C@@H](O)[C@H](O)C3)s2)c(C)c1	Active
CCC(OC(=O)C1=C[C@@H](O)[C@@H](O)[C@H](O)C1)c1cccc(OCCCC(O)(CC)CC)c1 (stereo not given in full)	Active

Now take the following molecule into account.
Query string: # lookup: Activity of CCCC(O)(CCC)CCCOc1cccc2c1CCCC2OC(=O)C1=C[C@@H](O)[C@@H](O)[C@H](O)C1 (stereo not given in full)
Result string: Active

###

Biological target: Vitamin D3 receptor (Homo sapiens)
Sequence (whole entry): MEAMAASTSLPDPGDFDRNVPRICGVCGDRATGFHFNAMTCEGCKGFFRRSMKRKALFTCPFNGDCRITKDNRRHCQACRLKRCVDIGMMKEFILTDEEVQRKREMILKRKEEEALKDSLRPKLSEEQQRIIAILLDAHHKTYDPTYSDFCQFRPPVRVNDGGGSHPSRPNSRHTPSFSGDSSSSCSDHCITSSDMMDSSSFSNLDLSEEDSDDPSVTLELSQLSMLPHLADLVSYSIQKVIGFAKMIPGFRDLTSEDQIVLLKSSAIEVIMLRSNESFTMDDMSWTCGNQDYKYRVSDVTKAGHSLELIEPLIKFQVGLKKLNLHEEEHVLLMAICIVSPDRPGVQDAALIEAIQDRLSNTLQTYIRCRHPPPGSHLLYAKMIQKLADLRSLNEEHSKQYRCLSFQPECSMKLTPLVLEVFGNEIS
Experiment: Binding affinity to full-length VDR (unknown origin) at 1 uM by fluorescence polarization assay relative to control
Conditions: filed as agonist
For each record, write down the corresponding Activity.
Reply with a number, then the unit it belongs to.

Take each entry in turn and give its Activity.
1. CC(C)(O)COc1ccc(/C=C/C2=C[C@@H](O)[C@@H](O)[C@H](O)C2)c2c1CCCC2
2. CCN(CC)CCCOc1cccc2c1CCCC2OC(=O)C1=C[C@@H](O)[C@@H](O)[C@H](O)C1 (stereo partly drawn)
3. CCC(OC(=O)C1=C[C@@H](O)[C@@H](O)[C@H](O)C1)c1cccc(OCCCC(O)(CC)CC)c1 (stereo partly drawn)
4. CC(C)(C)C(=O)COc1ccc(/C=C/C2=C[C@@H](O)[C@@H](O)[C@H](O)C2)c2c1CCCC2
5. CCCCC(OC(=O)C1=C[C@@H](O)[C@@H](O)[C@H](O)C1)c1cccc(OCCCC(C)(C)O)c1 (stereo partly drawn)
6. O=C(COc1ccc(/C=C/C2=C[C@@H](O)[C@@H](O)[C@H](O)C2)c2c1CCCC2)c1ccccc1
7. CC(C)(O)CCCCOc1cccc2c1CCCC2OC(=O)C1=C[C@@H](O)[C@@H](O)[C@H](O)C1 (stereo partly drawn)

Result string:
["72%", "64%", "84%", "68%", "50%", "72%", "65%"]

Query string: # lookup: Activity of CCC(O)(CC)c1ccc(-c2ccc(COC(=O)C3=C[C@@H](O)[C@@H](O)[C@H](O)C3)s2)c(C)c1
Result string: 60%

###

Tested on: LX-2
Assay: Inhibition of HSC activation in TGF-beta1-treated human LX2 cells assessed as decrease in ACTA2 mRNA level at 0.5 uM incubated for 24 hrs by qPCR analysis
Type: functional, cell-based
Activity calls are given as the source filed them. The calls are words filed in the database; no cut-off is given here.
Field 'call' accepts active, inactive

Please review the following examples before continuing.
CCC(OC(=O)C1=C[C@@H](O)[C@@H](O)[C@H](O)C1)c1cccc(OCCCC(C)(C)O)c1 (stereo partly drawn)	active
O=C(COc1ccc(/C=C/C2=C[C@@H](O)[C@@H](O)[C@H](O)C2)c2c1CCCC2)c1ccccc1	active
CCC(O)(CC)c1ccc(-c2ccc(COC(=O)C3=C[C@@H](O)[C@@H](O)[C@H](O)C3)s2)c(C)c1	active
OC(COc1ccc(/C=C/C2=C[C@@H](O)[C@@H](O)[C@H](O)C2)c2c1CCCC2)c1ccccc1 (stereo partly drawn)	inactive
CCCC(O)(CCC)CCCOc1cccc2c1CCCC2OC(=O)C1=C[C@@H](O)[C@@H](O)[C@H](O)C1 (stereo partly drawn)	active
CCCC(OC(=O)C1=C[C@@H](O)[C@@H](O)[C@H](O)C1)c1cccc(OCCCC(C)(C)O)c1 (stereo partly drawn)	active

Query string: Fill in: this test's call for O=C(OC1CCCc2c(OCCCN3CCOCC3)cccc21)C1=C[C@@H](O)[C@@H](O)[C@H](O)C1 (stereo partly drawn) is ___
Result string: inactive

Query string: Also CCC(OC(=O)C1=C[C@@H](O)[C@@H](O)[C@H](O)C1)c1cccc(OCCCC(O)(CC)CC)c1 (stereo partly drawn) ?
Result string: active
